- Run description: Ratio of inhibitory constant for 5-hydroxytryptamine 2A receptor to that of dopamine receptor D2
Output 1 (yes) for Ratio not less than 1; output 0 (no) otherwise.

// query Form field: Ratio at least 1? Entry: COc1cc2c(cc1OC)C(=O)CC(CN1CCC(c3noc4cc(F)ccc34)CC1)C2 (configuration not stated)
// result 1 (yes)

// query Form field: Ratio at least 1? Entry: COc1ccc2c(c1)CC(CN1CCC(c3noc4cc(F)ccc34)CC1)CC2=O (configuration not stated)
// result 1 (yes)

// query Form field: Ratio at least 1? Entry: COc1ccccc1N1CCN(CCC2CC(=O)c3ccccc3C2)CC1 (configuration not stated)
// result 0 (no)

// query Form field: Ratio at least 1? Entry: O=C1CC(CN2CCC(c3noc4cc(F)ccc34)CC2)Cc2ccccc21 (configuration not stated)
// result 1 (yes)

// query Form field: Ratio at least 1? Entry: COc1ccc2c(c1)C(=O)CC(CCN1CCC(c3noc4cc(F)ccc34)CC1)C2 (configuration not stated)
// result 1 (yes)

// query Form field: Ratio at least 1? Entry: O=C1CC(CCN2CCC(c3noc4cc(F)ccc34)CC2)Cc2ccccc21 (configuration not stated)
// result 1 (yes)

====

- Run description: Inhibitory constant towards 5-hydroxytryptamine 2C receptor (5-HT2C)
Can you tell me Log Ki for the items I'm about to list?
Note: the reply should be a number with no unit written.

// query Any idea what its Log Ki is? The compound is O=C1CC(CCN2CCC(c3noc4cc(F)ccc34)CC2)Cc2ccccc21 (stereo unspecified)
// result -7.06

// query Any idea what its Log Ki is? The compound is COc1ccc2c(c1)CC(CN1CCC(c3noc4cc(F)ccc34)CC1)CC2=O (stereo unspecified)
// result -5.79

// query Any idea what its Log Ki is? The compound is COc1ccc2c(c1)C(=O)CC(CCN1CCN(c3ccccn3)CC1)C2 (stereo unspecified)
// result -5.81

// query Any idea what its Log Ki is? The compound is O=C1CC(CN2CCC(c3noc4cc(F)ccc34)CC2)Cc2ccccc21 (stereo unspecified)
// result -6.89

// query Any idea what its Log Ki is? The compound is COc1ccc2c(c1)C(=O)CC(CCN1CCN(c3ccccc3OC)CC1)C2 (stereo unspecified)
// result -5.72

====

- Run description: Inhibitory constant towards 5-hydroxytryptamine 2A receptor (5-HT2A)
Threshold -8. Log Ki below it: 1.0. Log Ki at it or above: 0.0.

// query Decide: Log Ki of COc1ccc2c(c1)C(=O)CC(CCN1CCN(c3ccccc3OC)CC1)C2 (stereo not drawn) strictly below -8?
// result 0.0

// query Decide: Log Ki of O=C1CC(CCN2CCC(c3noc4cc(F)ccc34)CC2)Cc2ccccc21 (stereo not drawn) strictly below -8?
// result 1.0

// query Decide: Log Ki of O=C1NC(=O)C2(CCN(CCC3CC(=O)c4ccccc4C3)CC2)N1 (stereo not drawn) strictly below -8?
// result 0.0

// query Decide: Log Ki of O=C1CC(CN2CCC(c3noc4cc(F)ccc34)CC2)Cc2ccccc21 (stereo not drawn) strictly below -8?
// result 1.0

// query Decide: Log Ki of COc1ccc2c(c1)C(=O)CC(CCN1CCC3(CC1)NC(=O)NC3=O)C2 (stereo not drawn) strictly below -8?
// result 0.0

// query Decide: Log Ki of COc1ccc2c(c1)C(=O)CC(CCN1CCN(c3ccccn3)CC1)C2 (stereo not drawn) strictly below -8?
// result 0.0

// query Decide: Log Ki of COc1ccccc1N1CCN(CCC2CC(=O)c3ccccc3C2)CC1 (stereo not drawn) strictly below -8?
// result 0.0

// query Decide: Log Ki of COc1ccc2c(c1)CC(CN1CCC(c3noc4cc(F)ccc34)CC1)CC2=O (stereo not drawn) strictly below -8?
// result 0.0

// query Decide: Log Ki of O=C1CC(CCN2CCN(c3ccccn3)CC2)Cc2ccccc21 (stereo not drawn) strictly below -8?
// result 0.0
